// reported PBM binding z-score per item
Tested on: PPARa:RXRa (NR concentration 270 nM, RXRa partner concentration 90 nM)
Protocol Text: PBM binding z-score (relative to random genomic background probes); higher = stronger binding; sequences stand for … in GC…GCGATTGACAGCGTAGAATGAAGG
Hey, just send me the number, nothing else.

Reference set, count: 3
1. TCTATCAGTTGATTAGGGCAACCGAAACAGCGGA | 0.978
2. TCGAGTAGGTTACCAATGGCGCATTCAGCTTTCT | 0.977
3. AATACAGGGTCACCGTAGGCCAGAGTACGCACAG | 6.14

Now examine the next entry.
Task: Query PBM binding z-score for `TCGAGTAGGTTAGGGGGATTCAGAATGGCGTCGA`
Result: 1.63

The measurements presented in this section are drawn from the supplement of paper PMC6555819.
